The values you see were collected from the supplement of paper PMC11208160.

Assay: recombinant UMI read abundance after kanamycin selection (control-corrected) (log10(CPM+1)); higher = more efficient recombination; extreme values may be limits of the assay; sequences stand for … in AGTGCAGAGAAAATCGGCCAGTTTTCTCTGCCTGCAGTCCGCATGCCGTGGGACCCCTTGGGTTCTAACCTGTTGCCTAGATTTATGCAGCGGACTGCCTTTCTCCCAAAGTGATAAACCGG…AGGTTGGTTTCACT; site = the 11-nt donor;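 note: IS621 bridge recombinase in Escherichia coli cells against a fixed T5 target plasmid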
recombinant UMI read abundance (log10) vs 0.007: at or above is Criterion met, below is Criterion not met.

Some entries whose results are on file:
[[record]]
seq_string = "GTTCGAGCATGGACCGGTTTTCCCGGTAATCCGTATTTGGA (site GTTCGAGCTTA)"
class_name = "Criterion met"

[[record]]
seq_string = "GTTAGGACATGGACCGGTTTTCCCGGTAATCCGTATTTGGC (site GTTAGGACTGC)"
class_name = "Criterion met"

[[record]]
seq_string = "CTATACTCATGGACCGGTTTTCCCGGTAATCCGTATTTGTT (site CTATACTCTAA)"
class_name = "Criterion met"


# ---- query sequence ----
Ask: Confirm if recombinant UMI read abundance (log10) reported for the sequence GGCCATCCATGGACCGGTTTTCCCGGTAATCCGTATTTGAA (site GGCAATCCTTT) is 0.007 or above.
Reply: Criterion not met
